test system: CAMK1D; conditions: concentration: 1 μM, replicates: in singlicate; n = 1;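 also: KINOMEscan kinase panel screen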
quantityKind: %Inh (%)
// units = %; emit number, no label

Cl.c1ccc(Cn2ccc3cc(Nc4ncnc5ccccc45)ccc32)cc1 [GW275568] | 27
O=C(Nc1n[nH]c2nc(-c3ccco3)c(Br)cc12)c1ccc(CN2CCCC2)cc1.O=C(O)[C@H](O)[C@@H](O)C(=O)O [SB-742352] | 8
CS(=O)(=O)CCNCc1nc(-c2ccc3ncnc(Nc4ccc(OCc5cccc(F)c5)c(Cl)c4)c3c2)cs1.Cl [GW583340] | 15

Kindly note the recorded %Inh for NC(=O)c1sc(-n2cnc3ccccc32)cc1OCc1ccccc1F [GSK1024306] , which is 0

Kindly note the recorded %Inh for FC(F)(F)c1ccc(-c2nn3ncccc3c2-c2ccnc(Nc3cccc(C(F)(F)F)c3)n2)cc1 [GW828205] , which is 18

Kindly note the recorded %Inh for CC(C)(C)c1ccc(-n2cnc3c(N)ncnc32)cc1 [SKF-97263] , which is 9

Kindly note the recorded %Inh for CSc1nn2c(=O)cc(N3CCOCC3)nc2n1Cc1cccc(Cl)c1Cl [GSK2347225] , which is 8

Kindly note the recorded %Inh for COc1ccc(Nc2nccc(N3CCC(NC(=O)c4cccc(NC(C)=O)c4)C3)n2)cc1 (stereo not shown) [GSK1379732] , which is 8

Kindly note the recorded %Inh for Nc1nc(-c2ccc3c(N)n[nH]c3c2)cc(N2CCCCC2)n1 [GSK2228768] , which is 5

Kindly note the recorded %Inh for COc1ccc(NC(=O)c2ccc(-c3cc(-c4nnc(C)o4)ccc3C)cc2)cc1 [GW595885] , which is 8
